- System under test: recombinant homotrimeric HA A/Hong Kong/1073/99 H9N2 (Influenza A virus A/Hong Kong/1073/99 (H9N2))
- Assay overview: protein microarray, purified IgG, trimeric HA
- Setup conditions: remark: other sources report otherwise
Readout name: Trimeric HA Binding: RLU
Output should be the measured figure followed by the unit it is expressed in.

Looking for the measured Trimeric HA Binding: RLU of TCN-555 (5246_L16) (antibody, V domains shown) VH: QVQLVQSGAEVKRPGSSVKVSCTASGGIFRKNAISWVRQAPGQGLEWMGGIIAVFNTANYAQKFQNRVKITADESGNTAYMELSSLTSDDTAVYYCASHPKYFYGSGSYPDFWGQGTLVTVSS VL: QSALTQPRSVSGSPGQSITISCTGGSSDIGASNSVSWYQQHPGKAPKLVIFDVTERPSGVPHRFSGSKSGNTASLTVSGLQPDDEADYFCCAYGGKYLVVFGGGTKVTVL , can you help?
3440 RLU
